Recorded values, source ChEMBL document CHEMBL2346596.

- protocol: Unbound brain-to-plasma concentration ratio in mouse at 10 mg/kg, po after 4 hrs
- Type: ADME, organism-based
- Design: dose 10 mg/kg, route oral
- run parameters: brain and plasma (unbound), read-out: K(p,uu,brain)
quantity: Kp uu at 4 h

compound: CN1C(=O)C2(CC(C)(C)Oc3ccc(-c4cc(F)cc(Cl)c4)cc32)N=C1N (racemic)
Kp uu at 4 h: 0.22

I = CN1C(=O)C2(CC(C)(C)Sc3ccc(-c4cc(F)cc(Cl)c4)cc32)N=C1N (racemic)
II = CN1C(=O)C2(CC(C)(C)Cc3ccc(-c4cccnc4F)cc32)N=C1N (racemic)
III = CC1(C)Cc2ccc(-c3cncnc3)cc2C2(COC(N)=N2)C1 (racemic)
Problem: Sort (3 compounds) by Kp uu at 4 h: min first. Would you mind listing the labels in the order requested?
Solution: II, I, III
